# SYSTEM_NAME: T1, human CD25 on cells (human, UniProt P01589 22-272)
# T1 sequence (looked up): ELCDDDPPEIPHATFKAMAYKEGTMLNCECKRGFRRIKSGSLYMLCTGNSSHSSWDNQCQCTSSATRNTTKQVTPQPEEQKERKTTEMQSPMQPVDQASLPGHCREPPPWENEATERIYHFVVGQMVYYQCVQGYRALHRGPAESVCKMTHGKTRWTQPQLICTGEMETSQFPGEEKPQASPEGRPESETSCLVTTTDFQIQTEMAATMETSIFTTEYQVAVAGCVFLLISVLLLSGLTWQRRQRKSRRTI
# TEST_SUMMARY: cell-based or functional assay
TEST_READOUT: ADCC activity, Multiple of maximum fluorescence value (vs. IgG)

| BINDER | REPORTED_VALUE |
| --- | --- |
| PR031 (antibody, human IgG1, kappa, V domains shown) VH: EVQLVQSGAEVKKPGASVKVSCKASGYTFTTYDINWMKQHPGKGLEWIGWIYPRDGSTKYNAKFKGKATLTEDTSANTAYMELSSLRSEDTAVYYCARERIYDGSFDYWGQGTTVTVSS VL: DIVMTQSPDSLAVSLGERATINCKSSQRLFNSRDQKNYLAWYQQKPGQPPKLLIYGASTRESGVPDRFSGSGSGTDFTLTISSLQAEDVAVYYCQNDHIYPLTFGQGTKLEIKR | 192 fold |
